Measured IC50, listed per entry.
# assayed target: GCN2 (Homo sapiens)
# Sequence (Q9P2K8 whole entry): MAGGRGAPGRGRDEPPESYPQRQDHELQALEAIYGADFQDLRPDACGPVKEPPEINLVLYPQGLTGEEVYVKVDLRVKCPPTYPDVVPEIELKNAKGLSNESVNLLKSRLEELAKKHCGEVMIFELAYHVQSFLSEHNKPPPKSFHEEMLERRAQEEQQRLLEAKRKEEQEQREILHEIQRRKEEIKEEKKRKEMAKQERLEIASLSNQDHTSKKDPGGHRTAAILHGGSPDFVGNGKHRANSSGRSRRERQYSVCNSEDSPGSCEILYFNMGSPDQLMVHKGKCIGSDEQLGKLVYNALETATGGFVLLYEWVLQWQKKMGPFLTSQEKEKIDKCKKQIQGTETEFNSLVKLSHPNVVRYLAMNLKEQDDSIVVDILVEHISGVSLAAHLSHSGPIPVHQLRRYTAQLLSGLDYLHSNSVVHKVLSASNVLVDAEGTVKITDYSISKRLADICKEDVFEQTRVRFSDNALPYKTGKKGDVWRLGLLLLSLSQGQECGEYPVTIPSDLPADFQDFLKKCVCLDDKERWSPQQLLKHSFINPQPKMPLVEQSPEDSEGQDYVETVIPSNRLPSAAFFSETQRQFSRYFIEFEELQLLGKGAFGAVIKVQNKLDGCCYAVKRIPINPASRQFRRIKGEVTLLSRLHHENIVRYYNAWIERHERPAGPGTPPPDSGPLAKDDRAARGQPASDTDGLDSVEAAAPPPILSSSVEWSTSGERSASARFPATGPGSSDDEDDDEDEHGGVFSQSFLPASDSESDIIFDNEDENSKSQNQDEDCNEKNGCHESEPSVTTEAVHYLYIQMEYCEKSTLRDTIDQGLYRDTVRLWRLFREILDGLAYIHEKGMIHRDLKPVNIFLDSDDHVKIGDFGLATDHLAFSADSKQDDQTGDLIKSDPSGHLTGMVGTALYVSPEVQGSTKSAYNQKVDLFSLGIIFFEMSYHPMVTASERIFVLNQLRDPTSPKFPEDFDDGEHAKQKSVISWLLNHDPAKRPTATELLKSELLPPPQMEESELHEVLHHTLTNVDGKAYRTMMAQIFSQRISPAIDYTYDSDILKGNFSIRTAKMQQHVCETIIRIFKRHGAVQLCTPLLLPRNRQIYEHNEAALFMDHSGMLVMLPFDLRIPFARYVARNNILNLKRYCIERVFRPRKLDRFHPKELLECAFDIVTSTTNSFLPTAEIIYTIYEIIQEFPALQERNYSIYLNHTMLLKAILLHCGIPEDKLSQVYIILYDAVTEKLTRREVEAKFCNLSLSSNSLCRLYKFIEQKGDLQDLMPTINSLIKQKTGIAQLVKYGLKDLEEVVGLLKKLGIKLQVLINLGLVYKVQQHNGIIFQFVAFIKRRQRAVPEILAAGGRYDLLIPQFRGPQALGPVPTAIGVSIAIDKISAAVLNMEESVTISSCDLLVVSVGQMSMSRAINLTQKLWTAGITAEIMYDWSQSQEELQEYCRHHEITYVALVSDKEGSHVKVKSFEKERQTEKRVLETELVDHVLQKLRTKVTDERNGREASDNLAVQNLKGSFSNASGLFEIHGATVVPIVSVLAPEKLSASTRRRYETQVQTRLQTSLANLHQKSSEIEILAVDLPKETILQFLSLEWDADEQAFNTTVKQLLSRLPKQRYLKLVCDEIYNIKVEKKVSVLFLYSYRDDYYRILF
# procedure summary: TR-FRET biochemical assay for inhibition of GCN2 (Example 106, for Example 1-4BB)
# protocol conditions: Table 9

Cc1ncc(F)cc1S(=O)(=O)Nc1cc(C#N)cc(-c2ccc3c(-c4ncc[nH]4)n[nH]c3c2F)c1F = > 10 µM
COc1ncc(F)cc1S(=O)(=O)Nc1cc(F)cc(-c2ccc3c(C(=O)N[C@H]4CCN(C)C4)n[nH]c3c2F)c1F = 0.5 to 2.5 µM
COc1ncc(F)cc1S(=O)(=O)Nc1ccc(F)c(-c2ccc3c(C(=O)NCC[C@H](O)CO)n[nH]c3c2F)c1F = < 0.5 µM
COc1ncc(F)cc1S(=O)(=O)Nc1cc(C#N)cc(-c2ccc3c(-c4ncc[nH]4)n[nH]c3c2F)c1F = > 10 µM
COc1ccc(NS(=O)(=O)c2cc(F)cnc2OC)c(F)c1-c1ccc2c(C(N)=O)n[nH]c2c1F = 0.5 to 2.5 µM
COc1ncc(F)cc1S(=O)(=O)Nc1ccc(F)c(-c2ccc3c(C(=O)N[C@H]4CCN(C)C4)n[nH]c3c2F)c1F = 0.5 to 2.5 µM

Next, consider the following compound.
Challenge: Give the measured IC50 of NC(=O)c1n[nH]c2c(F)c(-c3c(F)ccc(NS(=O)(=O)c4cc(F)cc(CO)c4Cl)c3F)ccc12 .
Response given: < 0.5 µM

---

Recorded IC50 values for a group of compounds are listed next.
# assayed target: UniProt Q9P2K8
# procedure summary: TR-FRET biochemical assay for inhibition of GCN2 (Example 106, for Example 1-4BB)
# protocol conditions: Table 9

A selection of reference data follows.
COc1ncc(Cl)cc1S(=O)(=O)Nc1ccc(F)c(-c2ccc3c(C(=O)Nc4cc(F)cc(Cl)c4)n[nH]c3c2F)c1F = 2500 to 10000 nM
COc1ncc(F)cc1S(=O)(=O)Nc1ncc(F)c(-c2ccc3c(C(N)=O)n[nH]c3c2F)c1F = > 10000 nM
COc1ncc(CO)cc1S(=O)(=O)Nc1ccc(F)c(-c2ccc3c(C(N)=O)n[nH]c3c2F)c1F = 2500 to 10000 nM
Cc1ncc(F)cc1S(=O)(=O)Nc1cc(F)cc(-c2ccc3c(C(N)=O)n[nH]c3c2F)c1F = < 500 nM
COc1ncc(F)cc1S(=O)(=O)Nc1ccc(F)c(-c2ccc3c(C(=O)NCC#N)n[nH]c3c2F)c1F = < 500 nM
Cc1ncc(F)cc1S(=O)(=O)Nc1ccc(F)c(-c2ccc3c(C(=O)Nc4cnn(C)c4)n[nH]c3c2F)c1F = < 500 nM

As a next step, examine the compound that follows.
Challenge: Query (compound): Cc1ccc(F)cc1S(=O)(=O)Nc1ccc(F)c(-c2cc3[nH]ncc3cn2)c1F ; field requested: IC50
Response given: 500 to 2500 nM

---

Catalogue of pIC50 readings, one per entry.
# assayed target: GCN2 (Homo sapiens)
# procedure summary: TR-FRET biochemical assay for inhibition of GCN2 (Example 106, for Example 1-4BB)
# protocol conditions: Table 9
pIC50: −log10 of the molar value.

Before answering, review these 3 worked examples.
COc1ncc(Cl)cc1S(=O)(=O)Nc1ccc(F)c(-c2ccc3c(C(=O)Nc4cnn(C)c4)n[nH]c3c2F)c1F = 5.60 to 6.30
COc1ncc(C#N)cc1S(=O)(=O)Nc1ccc(F)c(-c2ccc3c(-c4ncc[nH]4)n[nH]c3c2F)c1F = > 6.30
COc1ncc(F)cc1S(=O)(=O)Nc1ccnc(-c2ccc3c(-c4ncc[nH]4)n[nH]c3c2F)c1C#N = 5.00 to 5.60

Challenge: Suppose we examine the molecule COc1nc(C)c(Cl)cc1S(=O)(=O)Nc1ccc(F)c(-c2ccc3c(-c4ncc[nH]4)n[nH]c3c2F)c1F ; what pIC50 value has been reported?
Response given: > 6.30
